- Tested on: Meloidogyne hapla J2
- testMethodNotes: proportion of mobile M. hapla J2 relative to DMSO control (fraction of DMSO control); higher = more viable, less nematicidal, active = 0.7 or less
- measurementSetup: 60 µM; 5 days; temperature: 20 °C
Param threshold (0.9) applies to proportion of mobile M. hapla J2; output MET when value >= threshold, NOT MET when value < threshold.

> print(dat)
                                    molecule  assignedclass
 1   COc1ccc(NC(=O)CSc2nnc(-c3ccccc3C)o2)cc1        NOT MET
 2          Cc1ccc(-c2nnc(SCc3ccccc3F)o2)cc1        NOT MET
 3      COc1cccc(-c2noc(COc3ccc(C)cc3C)n2)c1            MET
 4          Cc1ccccc1-c1noc(-c2cccc(Br)c2)n1            MET
 5  Cc1c(C)n(C(=O)CSc2nnc(-c3ccccc3)o2)c2ccccc12            MET
 6   CC(C)c1ccc(OCc2nc(-c3ccncc3)no2)c(Br)c1        NOT MET
 7  c1ccc(-c2noc(C3COc4ccccc4O3)n2)cc1 (stereo unspecified)            MET
 8  CC(Oc1ccc(C(C)(C)C)cc1)c1nc(-c2ccncc2)no1 (stereo unspecified)        NOT MET
 9    COc1ccc(-c2noc(-c3ccc(C)c(Cl)c3)n2)cc1            MET
10               CCSc1nnc(-c2ccc(Cl)cc2Cl)o1        NOT MET
11  CC(Oc1ccccc1)c1nc(-c2ccccn2)no1 (stereo unspecified)            MET
12  COc1ccccc1NC(=O)CSc1nnc(-c2cccc3ccccc23)o1        NOT MET
13           Cc1ccc(-c2nnc(SCc3ccccc3)o2)cc1        NOT MET
14        Cc1cc(C)nc(SCc2nc(-c3ccccc3)no2)n1            MET
15   CCc1cccc(C)c1NC(=O)CSc1nnc(-c2ccccc2)o1            MET
16   O=C(CSc1nnc(-c2cccnc2)o1)c1ccc2ccccc2c1        NOT MET
17  O=C(c1ccccc1-c1nc(-c2ccccc2)no1)N1CCCCC1            MET
18      Cc1ccc(-c2noc(-c3cc(C)cc(C)c3)n2)cc1        NOT MET
19            N#Cc1ccccc1CSc1nnc(-c2ccco2)o1        NOT MET
20  CC(=O)Nc1cccc(-c2nnc(SCc3ccc(F)cc3)o2)c1            MET
21       COc1ccc(-c2noc(-c3ccc(Cl)cc3)n2)cc1            MET
22             Brc1ccccc1-c1nc(-c2ccncc2)no1            MET
23   CCOc1ccccc1-c1nnc(SCC(=O)N2CCC(C)CC2)o1        NOT MET
24        Cc1cccc(-c2nc(-c3ccc(Br)cc3)no2)c1            MET
25        CCOc1nc(C)ccc1-c1noc(-c2ccccc2F)n1        NOT MET

---

- System: Meloidogyne hapla J2
- testMethodNotes: proportion of mobile M. hapla J2 relative to DMSO control (fraction of DMSO control); higher = more viable, less nematicidal, active = 0.7 or less
- measurementSetup: 60 µM; 5 days; temperature: 20 °C
Measured proportion of mobile M. hapla J2 of individual entries
readoutKind: proportion of mobile M. hapla J2

> print(dat)
                                   molecule    endpointresult
1  Cc1cccc(-c2nnc(SCC(=O)Nc3ccc(Br)c(C)c3C)o2)c1      1 (inactive)
2        Cc1ccc(SCc2nc(-c3cccc(C)c3)no2)cc1   1.01 (inactive)
3       CN(C)c1ccc(-c2nnc(SCc3ccccc3)o2)cc1  0.991 (inactive)
4         Fc1ccccc1OCc1nc(-c2ccc(Cl)cc2)no1      1 (inactive)
5           Cn1c(SCc2cccc(F)c2)nnc1-c1ccco1  0.929 (inactive)
6  COc1ccc(NC(=O)CSc2nnc(-c3ccc(Br)cc3)o2)cc1   1.02 (inactive)
